- experiment-summary: Stability of the analytes in beagle dog plasma (bench top, refrigerator, freeze–thaw, autosampler, short and long term storage)
- Format: physicochemical
- applied-conditions: refrigerator, 4°C, 30 h; dog plasma; LQC
measured-quantity: Accuracy (%)

COC(=O)Nc1nc2ccc([S+]([O-])c3ccccc3)cc2[nH]1 (stereo not shown) :: 95.50
CN1CCCN=C1/C=C/c1cccs1 :: 97.18
COC(=O)Nc1nc2ccc(Sc3ccccc3)cc2[nH]1 :: 97.04
O=C(C1CCCCC1)N1CC(=O)N2CCc3ccccc3C2C1 (stereo not shown) :: 98.16

====

- experiment-summary: Stability of the analytes in beagle dog plasma (bench top, refrigerator, freeze–thaw, autosampler, short and long term storage)
- Assay type: physicochemical
- applied-conditions: autosampler, 6°C, 55 h; processed plasma samples; LQC
measured-quantity: Accuracy (%)

COC(=O)Nc1nc2ccc(Sc3ccccc3)cc2[nH]1 :: 100.87
COC(=O)Nc1nc2ccc([S+]([O-])c3ccccc3)cc2[nH]1 (stereo not shown) :: 106.85
O=C(C1CCCCC1)N1CC(=O)N2CCc3ccccc3C2C1 (stereo not shown) :: 103.68
CN1CCCN=C1/C=C/c1cccs1 :: 107.25
